test: Half life of the compound in glucose phosphate buffer at pH 7; assay type: physicochemical
endpoint label: half-life (h)

smiles notation: CC(=O)O[C@H]1C(=O)[C@@]2(C)[C@H]([C@H](OC(=O)c3ccccc3)[C@]3(O)C[C@H](OC(=O)[C@H](OC(=O)CCC(=O)N[C@@H](CCC(=O)NCCCC[C@@H]4NC(=O)[C@@H](Cc5ccccc5)NC(=O)[C@H](CC(=O)O)NC(=O)CNC(=O)[C@H](CCCNC(=N)N)NC4=O)C(=O)NCCCC[C@@H]4NC(=O)[C@@H](Cc5ccccc5)NC(=O)[C@H](CC(=O)O)NC(=O)CNC(=O)[C@H](CCCNC(=N)N)NC4=O)[C@@H](NC(=O)c4ccccc4)c4ccccc4)C(C)=C1C3(C)C)[C@]1(OC(C)=O)CO[C@@H]1C[C@@H]2O
endpoint label: half-life
result number: 2
